# credit: patent US11667638B2

- Experimental system: α3β4 nAChRs (Homo sapiens (Human), UniProt P30926+P32297)
- Sequence (P32297 32-505): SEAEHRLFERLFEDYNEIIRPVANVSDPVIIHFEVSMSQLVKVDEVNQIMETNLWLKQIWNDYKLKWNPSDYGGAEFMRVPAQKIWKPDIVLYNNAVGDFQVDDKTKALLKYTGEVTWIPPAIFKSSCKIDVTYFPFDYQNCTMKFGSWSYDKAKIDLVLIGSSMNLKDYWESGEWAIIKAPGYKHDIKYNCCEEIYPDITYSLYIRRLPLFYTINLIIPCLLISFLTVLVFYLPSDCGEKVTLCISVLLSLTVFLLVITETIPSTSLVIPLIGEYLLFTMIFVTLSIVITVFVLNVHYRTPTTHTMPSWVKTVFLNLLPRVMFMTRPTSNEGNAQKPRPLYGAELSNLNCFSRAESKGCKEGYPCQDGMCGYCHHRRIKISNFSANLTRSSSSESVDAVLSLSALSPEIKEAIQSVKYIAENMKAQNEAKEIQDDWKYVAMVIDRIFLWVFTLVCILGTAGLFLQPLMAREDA
- Sequence (P30926 22-498): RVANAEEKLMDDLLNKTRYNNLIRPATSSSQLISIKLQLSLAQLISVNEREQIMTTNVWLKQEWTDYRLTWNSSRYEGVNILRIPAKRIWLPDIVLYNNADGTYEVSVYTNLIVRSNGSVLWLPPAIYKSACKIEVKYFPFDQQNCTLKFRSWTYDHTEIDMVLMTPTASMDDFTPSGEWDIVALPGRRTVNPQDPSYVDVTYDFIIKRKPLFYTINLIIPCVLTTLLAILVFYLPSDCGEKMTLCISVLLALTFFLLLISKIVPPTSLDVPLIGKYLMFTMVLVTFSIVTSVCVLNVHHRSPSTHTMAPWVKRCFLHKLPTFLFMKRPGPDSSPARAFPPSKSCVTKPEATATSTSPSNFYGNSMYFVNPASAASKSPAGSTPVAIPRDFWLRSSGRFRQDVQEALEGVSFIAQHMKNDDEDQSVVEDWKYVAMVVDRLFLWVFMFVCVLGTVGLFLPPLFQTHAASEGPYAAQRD
- Protocol details: Maximal gating efficacy on α3β4 nAChRs in Xenopus oocytes, two electrode voltage clamp
- Format: cell-based
- Test conditions: maximal current relative to 1 mM ACh
Parameter measured: Relative efficacy (ACh)

>>> observed_value("c1cnc2cc3c(cc2n1)[C@@H]1CNC[C@H]3C1 [Varenicline, reference compound]")
"0.51 ± 0.09"
>>> observed_value("Cc1ccc(-c2cc3n(c(=O)c2)CC2CNC[C@@H]3C2)cc1 (single isomer, unassigned; (+)) [Compound 73, (+)4-p-Tolylcytisine]")
"0.076 ± 0.093"
>>> observed_value("O=c1cc(Br)cc2n1CC1CNC[C@@H]2C1 (single isomer, unassigned; (-)) [Compound 62, (−)4-Bromocytisine]")
"0.184 ± 0.046"
